Origin of measurements: the supplement of paper PMC10567573

B1: CHCHD3 (parent)
chain: YSGAYGASVSDEELKRRVAEELAL

- Variants of: B1
- assay summary: protein stability index of a GFP-peptide fusion (GPS, HEK-293T) (PSI 1-6); higher = more stable;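 also: lentivirally expressed fusions sorted by FACS into six bins by GFP to DsRed ratio, PSI derived from sequencing read proportions per bin multiplied by bin number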
- experimental parameters: c terminus: a fixed tail appended
For each of the variants below, state its protein stability index.
Form: value (number only, do not type unit).

Given the entry A23R , report its measured protein stability index.
2.26

What value of measured protein stability index is listed for K15E ?
3.33

// lookup protein stability index for Y5H
4.02

Report protein stability index for E20F please.
1.99

Any idea what protein stability index was measured for L22K ?
2.19

Need protein stability index, item L22W
1.89

Sample R17H — what was its protein stability index?
2.4

Any idea what protein stability index was measured for K15C ?
3.2

For the variant shown here, Y5Q , give the reported protein stability index.
5.28

Please report the recorded protein stability index for Y5F .
1.33

Reported protein stability index, variant G6M : ____
2.4

Fill in: protein stability index of Y5E is ___
5.32

For the variant Y1S , what protein stability index is on record?
5.45

// returns reported protein stability index for input R17I
2.4

Given E20L , state its recorded protein stability index.
2.22

// lookup protein stability index for E12H
2.24

Endpoint output: protein stability index of A19F . Value?
2.54

So what's the measured protein stability index for this one? A23D
2.76

Which protein stability index value belongs to E12V ?
2.37

Endpoint output: protein stability index of E12F . Value?
2.09

Record request: protein stability index value, item K15L
2.52

protein stability index for E12K ?
2.53

Reported protein stability index for A4G : what is it?
2.27

Item R17M has what recorded protein stability index?
1.94

Which protein stability index reading was recorded for the variant E13P ?
2.47

Please report the recorded protein stability index for S10K .
2.46

Need protein stability index of Y1H , thanks.
4.99

What value of protein stability index has been recorded for this entry: V9K
2.57

Consider the variant shown here: R17V What is its recorded protein stability index?
2.63

# get_value(readout='protein stability index', item= S8M )
3.52

Fill in the blank: the reported protein stability index of K15P is ____.
2.29

Reported protein stability index, variant V18K : ____
2.38

Bench note: what protein stability index did E12L show?
2.17

Any idea what its protein stability index is? The variant is S2F
3.45
